Target: Recombinant human mPGES-1 (Homo sapiens, UniProt O14684)
Construct: made in house; host or cells: CHO cells (crude microsomal fractions)
Sequence (O14684 whole entry): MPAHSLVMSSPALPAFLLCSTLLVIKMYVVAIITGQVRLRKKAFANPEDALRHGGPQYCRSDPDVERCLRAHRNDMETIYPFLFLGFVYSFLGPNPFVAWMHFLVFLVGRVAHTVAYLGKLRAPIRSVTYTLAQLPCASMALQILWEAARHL
Experiment: In-vitro screening of mPGES-1 inhibitors (inhibition of PGE2 formation from PGH2, HTRF detection)
Format: biochemical
Conditions: 10 μM test compound; mPGES-1 enzyme, crude microsomal fractions; read-out: Percentage inhibition at 10 μM
Endpoint Label: inhibition at 10 µM (%)
Give bare numbers, in %.

# example entries with known answers
O=c1[nH]c(-c2c(F)cccc2Cl)nn1-c1ccc(C#Cc2ccc(C(F)(F)F)cn2)cc1 :: 90.4
CC(C)(C)C(=O)NCc1ccc(Cl)c(-n2nc(-c3ccc(C(F)(F)F)cc3)[nH]c2=O)c1 :: 98.9

Provide reported inhibition at 10 µM for each item, in the same order as listed.
1. O=c1[nH]c(-c2c(F)cccc2Cl)nn1-c1ccc(C#Cc2cccc(Cl)c2F)cc1
2. CC(C)(C)C(=O)NCc1cc(-c2nn(-c3ccc(C(F)(F)F)cc3)c(=O)[nH]2)c(Cl)cc1F

[87.5, 98.4]

Provide reported inhibition at 10 µM for each item, in the same order as listed.
1. O=c1[nH]c(-c2c(F)cccc2Cl)nn1-c1ccc(C#Cc2ccc(N3CCOCC3)nc2)cc1
2. CC(C)(C)C(=O)NCc1ccc(Cl)c(-c2nn(-c3ccc(C(F)(F)F)cn3)c(=O)[nH]2)c1F
3. COc1cc(-n2nc(-c3c(Cl)cccc3Cl)[nH]c2=O)ccc1-c1nc(C(C)C)no1
4. O=C(NCc1ccc(Cl)c(-c2nn(-c3ccc(C(F)(F)F)cc3)c(=O)[nH]2)c1)C1CCC1

1: 92.3; 2: 100; 3: 99.8; 4: 94.3
